Data origin: patent US20250197451A1

Property: Intensity (%); scope: individual binders
system.under.test: T1, biotin-labelled EZH2 protein (UniProt Q15910 1-746, limits assumed, biotin label (EZ-link NHS-PEO4-Biotinylation kit))
T1 construct: Probe in solution (1 ug/ml) on the KDM2B peptide microarray; also called NHS-PEO4-Biotinylation-labelled EZH2 protein; recombinant protein
experimental.details: KDM2B peptide array probed with biotin-EZH2 1 ug/ml, SA-HRP/ECL;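 further: 100% is the highest background-corrected spot optical density on the membrane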;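 further: Background-corrected optical density of each spot on the membrane, given as percent of the brightest spot (100%), color developed for 5 minutes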
Give the value in % but do not write % after it.

binder	unit.text	Intensity (%)
GSSSHLSPRPPLGSS [peptide 166]	%	0.84

Item: EDKLFRKKRRSWKNA [peptide 173] | Intensity (%): 0

Documented Intensity (%) of QRSHLTQEYQRESML [peptide 76] : 0

Kindly note the recorded Intensity (%) for VKKYCLMSVKGCFTD [peptide 46] , which is 100

binder DRQRYDENEDLSDVE [peptide 10] , Intensity (%) observed: 0

So, DFNYEYVQREALRVP [peptide 19] ? Its Intensity (%) was 0

Given item CHIDLRYCKQVTKEG [peptide 260] , the value recorded as its Intensity (%) is 22.3

For this binder ( MAVFSYLSHQDLCVC [peptide 215] ), measured Intensity (%) is 2.82

Lookup result for SPPTDNRPGQMDNRS [peptide 240] ; measured Intensity (%): 0

Kindly note the recorded Intensity (%) for EDHPPRKRHAAEKQK [peptide 3] , which is 0

# Intensity (%) (binder: CCDKRLWTRIDLNHC [peptide 220] ) is 4.32
